Test system: LOC_OS01G39600-cb002
Experiment: thermal shift delta Tm vs DMSO control; higher = stronger stabilization (binding);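 further: purified Escherichia coli-expressed rice kinase domain construct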
Details: 12.5 µM; protein concentration 2 µM
Parameter: thermal shift delta Tm. Scope: all listed entries.
Write the answer as a number in °C, unit excluded.

CC(C)NC[C@@H](C(=O)N1CCN(c2ncnc3c2[C@H](C)C[C@H]3O)CC1)c1ccc(Cl)cc1 ... 0.77
O=c1cc(N2CCOCC2)oc2c(-c3ccccc3)cccc12 ... 0.29
O=C1NC(=O)/C(=C/c2ccc(-c3ccc(F)cc3O)o2)S1 ... 7.64

Item under review: Cc1ccccc1-n1c(Cn2nc(-c3cccc(O)c3)c3c(N)ncnc32)nc2cccc(C)c2c1=O . Reported thermal shift delta Tm? -0.15

Please report the recorded thermal shift delta Tm for O=C1NC(=O)/C(=C/c2ccc3c(c2)OC(F)(F)O3)S1 . 0.17

For the compound shown here, CCN(CC)CCNC(=O)c1c(C)[nH]c(/C=C2\C(=O)Nc3ccc(F)cc32)c1C , give the reported thermal shift delta Tm. 2.9

Find the recorded thermal shift delta Tm belonging to COc1cc(-c2cc(-c3ccc(N4CCNCC4)cc3)cnc2C)cc(OC)c1OC and report it. -1.03

Recorded thermal shift delta Tm of O=C(NCCO)c1cccc(-c2cc(Nc3ccc(OC(F)(F)F)cc3)ncn2)c1 , please. 0.3

Item under review: CN(C)C/C=C/C(=O)Nc1ccc(C(=O)Nc2cccc(Nc3ncc(Cl)c(-c4c[nH]c5ccccc45)n3)c2)cc1 . Reported thermal shift delta Tm? 2.35

Fill in the blank: the reported thermal shift delta Tm of COc1ccc(/C=C/C(=O)C2(C(=O)/C=C/c3ccc(OC)c(OC)c3)CCCCC2)cc1OC is ____. 0.02

====

Tested on: LOC_OS02G17970-cb001
Assay: thermal shift delta Tm vs DMSO control; higher = stronger stabilization (binding)
Settings: 12.5 µM; protein concentration 2 µM
Each entry gets not fulfilled if its thermal shift delta Tm stays under 0.9 °C, and fulfilled if its thermal shift delta Tm is 0.9 °C or above.

Cn1c2ccccc2c2c3c(c4c5ccccc5n(CCC#N)c4c21)CNC3=O ... fulfilled
O=C(O)c1ccc(Nc2ncc3c(n2)-c2ccc(Cl)cc2C(c2c(F)cccc2F)=NC3)cc1 ... not fulfilled

Has C=CCc1ccc(O)c(-c2ccc(O)c(CC=C)c2)c1 a recorded thermal shift delta Tm greater than or equal to 0.9 °C? fulfilled

Is reported thermal shift delta Tm greater than or equal to 0.9 °C here: CONC(=O)c1ccccc1Nc1cc(Nc2cc(C)nn2C(C)C)ncc1Cl not fulfilled

Would you say O=C(O)[C@]1(Cc2cccc(Nc3nccs3)n2)CC[C@@H](Oc2cccc(Cl)c2F)CC1 shows thermal shift delta Tm at minimum 0.9 °C? not fulfilled

State whether the measured thermal shift delta Tm reaches 0.9 °C, counting equality as reaching it, for COc1ccc(-c2cc3nccn3c(Nc3ncccc3C(N)=O)n2)cc1OC not fulfilled

Could you verify whether the entry O=c1cc(N2CCOCC2)oc2c1ccc1ccccc12 shows thermal shift delta Tm of no less than 0.9 °C? not fulfilled

Identify whether the reported thermal shift delta Tm of the following molecule is 0.9 °C or greater: CN1CCN(Cc2ccc(NC(=O)Nc3ccc(Oc4ccnc(N)n4)cc3)cc2C(F)(F)F)CC1 fulfilled

Could you please find out whether CC(C)c1ccc2oc3nc(N)c(C(=O)O)cc3c(=O)c2c1 has thermal shift delta Tm that meets 0.9 °C or exceeds it? not fulfilled

Given the entry Oc1ccc(-c2nc(-c3ccc(F)cc3)c(-c3ccncc3)[nH]2)cc1 , answer whether its thermal shift delta Tm meets or surpasses 0.9 °C. fulfilled

Given CN(C)C/C=C/C(=O)Nc1cc2c(Nc3ccc(F)c(Cl)c3)ncnc2cc1O[C@H]1CCOC1 [Afatinib (BIBW2992) Dimaleate] , state whether its thermal shift delta Tm is at least 0.9 °C. fulfilled

Is the recorded value of thermal shift delta Tm equal to or greater than 0.9 °C for this molecule? O=C(NCc1ccccc1)c1csc(Nc2ccncn2)n1 fulfilled

Is reported thermal shift delta Tm greater than or equal to 0.9 °C here: CCNC(=O)Nc1ccc(-c2nc3c(c(N4CCOC[C@@H]4C)n2)CCN(C2COC2)C3)cc1 not fulfilled

Does COC1(c2sc3c(N4CCOCC4)nc(-c4cnc(N)nc4)nc3c2C)COC1 have a reported thermal shift delta Tm of at least 0.9 °C? not fulfilled

====

Known thermal shift delta Tm of a selection of molecules
Test system: LOC_OS04G38480-cb003
Sequence (as listed by the source): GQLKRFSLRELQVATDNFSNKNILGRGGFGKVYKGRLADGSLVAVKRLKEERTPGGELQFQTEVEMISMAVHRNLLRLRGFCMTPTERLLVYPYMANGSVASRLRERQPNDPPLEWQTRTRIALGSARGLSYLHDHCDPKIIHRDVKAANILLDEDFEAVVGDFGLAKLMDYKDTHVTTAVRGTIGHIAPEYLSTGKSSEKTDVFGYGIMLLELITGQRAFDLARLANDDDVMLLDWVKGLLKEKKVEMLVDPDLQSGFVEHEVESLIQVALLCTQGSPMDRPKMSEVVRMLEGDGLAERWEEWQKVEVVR
Assay: thermal shift delta Tm vs DMSO control; higher = stronger stabilization (binding)
Settings: 12.5 µM; protein concentration 2 µM
I only need the number, in °C, no unit after it.

CO[C@H]1C[C@@H]2CC[C@@H](C)[C@@](O)(O2)C(=O)C(=O)N2CCCC[C@H]2C(=O)O[C@H]([C@H](C)C[C@@H]2CC[C@@H](OC(=O)C(C)(CO)CO)[C@H](OC)C2)CC(=O)[C@H](C)/C=C(\C)[C@@H](O)[C@@H](OC)C(=O)[C@H](C)C[C@H](C)/C=C/C=C/C=C/1C ... 1.42
NC1(Cc2ccc(Cl)cc2)CCN(c2ncnc3[nH]ccc23)CC1 ... 0.64
COc1ccc(Oc2cc(NCCC(F)(F)F)c3ncc(-c4ccc(C(=O)NC5CC5)c(C)c4)n3n2)c(F)c1F ... 1.64
Cc1[nH]nc2ccc(-c3cncc(OC[C@@H](N)Cc4ccccc4)c3)cc12 ... 0.62
O=C(NCc1cccc(O)c1)Nc1nc(-c2ccncc2)cs1 ... 0.86

Can you share its thermal shift delta Tm? I mean this molecule: Cc1cc(Nc2nc(N[C@@H](C)c3ccc(F)cc3)c(C#N)cc2F)n[nH]1 2.31

Given Cn1ncc(Cl)c1-c1cc(C(=O)N[C@H](CN)Cc2ccc(F)c(F)c2)oc1Cl , state its recorded thermal shift delta Tm. 1.58

Which thermal shift delta Tm value belongs to CC(C)(C)NC(=O)c1cncn1C1CCN(c2ccc(-c3nnc(C(F)(F)F)o3)cn2)CC1 ? 1.43

Sample CC(C)(O)CNc1ncc(-c2ccnc(Nc3ccnc(Cl)c3)n2)c(CC2CC2)n1 — what was its thermal shift delta Tm? 1.45

Need thermal shift delta Tm, item Cn1cc(-c2cnn3c(N)c(Br)c([C@@H]4CCCNC4)nc23)cn1 2.62

Look up thermal shift delta Tm for this molecule: Cc1cc(Nc2cc(N)ncn2)c(=O)n2c1C(=O)NC21CCCCC1 0.09

====

Test system: LOC_OS01G63280-cb003
Test: thermal shift delta Tm vs DMSO control; higher = stronger stabilization (binding)
Details: 12.5 µM; protein concentration 2 µM
// reported thermal shift delta Tm for each item listed
Enter your answer as a number in °C; do not include the unit.

Here's what some known entries look like.
O=C(NC[C@H](O)CO)c1ccncc1Nc1ccc(I)cc1F ... 0.1
O=C1NC(=O)/C(=C/c2ccc3nccc(-c4ccncc4)c3c2)S1 ... -0.17

--- query ---
Record request: thermal shift delta Tm value, item CC(C)(C)NS(=O)(=O)c1cncc(-c2cc(F)c3nc(N)nn3c2)c1 0.83

====

System: LOC_OS01G21960-cb002
Test: thermal shift delta Tm vs DMSO control; higher = stronger stabilization (binding)
Settings: 12.5 µM; protein concentration 2 µM
Structures can show the parent of a compound that is named as a salt.
measured.parameter: thermal shift delta Tm (°C)
Please state the figure in °C; there is no need to write the unit.

COc1cc2c3cc1Oc1c(OC)c(OC)cc4c1[C@@H](Cc1ccc(O)c(c1)Oc1ccc(cc1)C[C@@H]3N(C)CC2)N(C)CC4 [Berbamine (dihydrochloride)] ... 0.36
Cc1cc(Nc2nc(N[C@@H](C)c3ccc(F)cc3)c(C#N)cc2F)n[nH]1 ... 1.28
COc1cc2ncc(-c3ccccc3)nc2cc1OC [Tyrphostin AG 1296] ... 0

In the following, a different molecule is considered.
# input molecule: Cc1c[nH]c2nc(Nc3ccc(N4CCN(C)CC4)c(F)c3)nc(-c3cccc(CC#N)c3)c12 ; wanted: its thermal shift delta Tm 4.45

====

System: LOC_OS04G57630-cb004
Test: thermal shift delta Tm vs DMSO control; higher = stronger stabilization (binding)
Settings: 12.5 µM; protein concentration 2 µM
Okay, here is how we bin by thermal shift delta Tm: lower segment: < 0.2 °C; middle segment: ≥ 0.2 °C and < 0.9 °C; upper segment: ≥ 0.9 °C

CNC(=O)Nc1ccc(-c2nc(N3CC4CCC(C3)O4)c3cnn(C4CCC5(CC4)OCCO5)c3n2)cc1 ... middle segment
Cc1cc(Nc2cc(Cl)nc(Oc3ccc([N+](=O)[O-])cc3)n2)n[nH]1 [Autophinib] ... lower segment
CN1C(=O)[C@@H](NC(=O)c2n[nH]c(Cc3ccccc3)n2)COc2ccccc21 ... middle segment
CO[C@H]1C[C@@H]2CC[C@@H](C)[C@@](O)(O2)C(=O)C(=O)N2CCCC[C@H]2C(=O)O[C@H]([C@H](C)C[C@@H]2CC[C@@H](O)[C@H](OC)C2)CC(=O)[C@H](C)/C=C(\C)[C@@H](O)[C@@H](OC)C(=O)[C@H](C)C[C@H](C)/C=C/C=C/C=C/1C [Rapamycin (Sirolimus)] ... lower segment
Cn1nccc1Nc1nccc(-c2ccn([C@H](CO)c3ccc(Cl)c(F)c3)c(=O)c2)n1 ... lower segment

# bin lookup: classify C[C@H]1[C@H](C)CC[C@]2(C(=O)O)CC[C@]3(C)C(=CC[C@@H]4[C@@]5(C)C[C@@H](O)[C@H](O)[C@@](C)(CO)[C@@H]5CC[C@]43C)[C@H]12 [Asiatic Acid] by its thermal shift delta Tm middle segment

Class for Cc1cc2c(F)c(Oc3ncnn4cc(OC[C@@H](C)O)c(C)c34)ccc2[nH]1 ? middle segment

Bin? C[C@@H](Oc1cc(-n2cnc3ccc(CN4CCN(C)CC4)cc32)sc1C(N)=O)c1ccccc1C(F)(F)F upper segment

Class for CN1CCN(Cc2ccc(-c3cnc4[nH]cc(-c5ccc6[nH]ccc6c5)c4c3)cc2)CC1 ? upper segment

Which category does the recorded thermal shift delta Tm put CN1CCN(c2ccc(C(=O)Nc3n[nH]c4ccc(Cc5cc(F)cc(F)c5)cc34)c(NC3CCOCC3)c2)CC1 [Entrectinib (RXDX-101)] in? upper segment

Measured values drawn from the supplement of paper PMC9694430 for this set.
